# assay_notes: BT084 cell growth, single and combined drugs, ICGC_MB145, cisplatin and BGB IC40 combos (AID 1671461);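 note: cells exposed to drugs for 96 hours; 0% = vehicle DMSO and 100% = high DMSO full killing control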
# experimental_parameters: BT084 medulloblastoma cells, drug combinations, single agent, at 5 µM, stronger effect = higher value
Assign inhibition to each entry below.
A complete answer gives the number followed by the unit.

*Q* Form field: reported inhibition of "O=C(O)CO.[NH2-].[NH2-].[Pt+2]"
*A* -4.36%

*Q* Entry under review: "Nc1ccc(-c2ccc3ncc4ccc(=O)n(-c5cccc(C(F)(F)F)c5)c4c3c2)cn1" . Reported inhibition?
*A* 41.3%

*Q* Look up inhibition: "C[C@]12CCCN1CC1=NNC(=O)c3cc(F)cc4[nH]c2c1c34"
*A* -12.6%

----------
# assay_notes: drug combination growth inhibition, ovarian cancer – cell-based, oncology-focused library, rucaparib conditional, profiling panel (AID 1508598)
# experimental_parameters: patient-derived ovarian cancer cells, CellTiter-Glo viability, 144 h; at 0.0195 µM; OCI-C5x cells; without rucaparib; stronger effect = lower value
Please respond with reported viability for every item in the list.
Expressed in %, but write only the number.

*Q* Which viability is reported for this compound? "Cc1cc(Nc2nc(N[C@@H](C)c3ncc(F)cn3)ncc2Cl)n[nH]1"
*A* 102

*Q* Entry COc1ccc(C2=NC(c3ccc(Cl)cc3)C(c3ccc(Cl)cc3)N2C(=O)N2CCNC(=O)C2)c(OC(C)C)c1 (stereo not given) : reported viability = ?
*A* 128

*Q* viability lookup needed for "O=C(/C=C/c1cccc(S(=O)(=O)Nc2ccccc2)c1)NO" , thanks.
*A* 119

*Q* Given "CCOc1cc(N2CCC(O)CC2)ccc1Nc1ncc2c(n1)N(C)c1ccccc1C(=O)N2C" , state its recorded viability.
*A* 117

*Q* Need viability of CC1COC2(CCN(c3nc(=O)c4cc(C(F)(F)F)cc([N+](=O)[O-])c4s3)CC2)O1 (stereo not given) , thanks.
*A* 112

*Q* Which value of viability has been reported for "O=C(Cc1ccc(-c2ccc(OCCN3CCOCC3)cc2)cn1)NCc1ccccc1" in the records?
*A* 58.9

*Q* Sample "C#Cc1cccc(Nc2ncnc3cc(OCCOC)c(OCCO)cc23)c1" — what was its viability?
*A* 120

*Q* Report viability for "O=C(Nc1cccc(Cl)c1)Nc1ncc(CCNc2ncnc3ccsc23)s1" please.
*A* 109

*Q* Can you share its viability? I mean this compound: "Cc1cccc(-c2nn3c(c2-c2ccnc4ccc(C(N)=O)cc24)CCC3)n1"
*A* 136

*Q* Would you mind telling me what viability value was observed for "Cc1ccc(C(=O)Nc2ccc(CN3CCN(C)CC3)c(C(F)(F)F)c2)cc1C#Cc1cnc2cccnn12" ?
*A* 127

*Q* What value of viability has been reported for the following compound? "CS(=O)(=O)N1CCc2c(-c3cnc(N)nc3)nc(N3CCOCC3)nc21"
*A* 125

*Q* I have this compound here, "S=C(NCc1ccc2c(c1)OCO2)N1CCN(c2ncnc3c2oc2ccccc23)CC1" , and I need its recorded viability.
*A* 98.9

*Q* Param item = "CC(C)n1nc(-c2ccc3oc(N)nc3c2)c2c(N)ncnc21" ; retrieve measured viability.
*A* 88.1

*Q* Field request: viability | item: "CCC(CC)CC1(C(=O)Nc2ccccc2SC(=O)C(C)C)CCCCC1"
*A* 110

*Q* Field request: viability | item: "COc1cc(Nc2ncc3c(n2)-c2ccc(Cl)cc2C(c2c(F)cccc2OC)=NC3)ccc1C(=O)O"
*A* 103

*Q* Any idea what viability was measured for "CC(C)C[C@H](NC(=O)CNC(=O)c1cc(Cl)ccc1Cl)B(O)O" ?
*A* 128

*Q* What value of viability has been reported for the following compound? "Cc1ccc2c(=O)c3cccc(CC(=O)O)c3oc2c1C"
*A* 116

*Q* Give the measured viability of "O=C(Nc1cccnc1)N1CCC(Cc2cccc(Oc3ccc(C(F)(F)F)cn3)c2)CC1" .
*A* 118

*Q* Entry under review: "CC(C)OC(=O)C1=CN(C(=O)c2ccc(F)c(F)c2)CC(C)(C)c2c1[nH]c1ccccc21" . Reported viability?
*A* 126

*Q* Fill in: viability of "C/C(=C\C(=O)Nc1ccccc1C(=O)O)c1ccc2ccccc2c1" is ___
*A* 111

----------
# assay_notes: viability loss with induced miR-34 in A549 – imaging, A549 dox-inducible miR-34, nuclei and caspase counts, primary screen (AID 1347080)
# experimental_parameters: A549 miR-34 inducible, Hoechst nuclei count, 48 h; stronger effect = lower value; cell number ratio, induced over uninduced
# note: exactly 1 is not below, so it is FALSE; use TRUE for fold change strictly under it

*Q* Is fold change strictly under 1 for the entry "CCCCC/C=C\C/C=C\C/C=C\C/C=C\CCCC(=O)S[C@H](COCCCCCCCCCCCCCCCC)COP(=O)([O-])OCC[N+](C)(C)C" ?
*A* FALSE

*Q* I wonder whether "CC(C)(C)OC(=O)Nc1cccc2[nH]ccc12" has fold change below 1. Can you tell?
*A* TRUE

*Q* Here's an entry: "Cc1ccc(OC[C@@H](O)[C@H](C)NC(C)C)c2c1CCC2" . Is its fold change below 1?
*A* TRUE

*Q* Below 1 on fold change? Entry "CCCCC/C=C\C/C=C\C/C=C\CCCCCCC(=O)OC"
*A* FALSE

*Q* Strictly below 1 in fold change? CCCCCCCCCC(=O)N[C@@H](Cc1c[nH]c2ccccc12)C(=O)N[C@@H](CC(N)=O)C(=O)N[C@@H](CC(=O)O)C(=O)N[C@@H]1C(=O)NCC(=O)N[C@@H](CCCN)C(=O)N[C@@H](CC(=O)O)C(=O)N[C@H](C)C(=O)N[C@@H](CC(=O)O)C(=O)NCC(=O)N[C@H](CO)C(=O)NC([C@@H](C)CC(=O)O)C(=O)N[C@@H](CC(=O)c2ccccc2N)C(=O)OC1C (stereo partly drawn)
*A* TRUE

*Q* Below 1 on fold change? Entry "CCCCCC(=O)/C=C/[C@@H]1[C@@H](CCCCCCC(=O)O)[C@@H](O)C[C@H]1O"
*A* FALSE

*Q* Could you please tell me whether fold change recorded for "CC(=O)c1c(C)c2cnc(Nc3ccc(N4CCNCC4)cn3)nc2n(C2CCCC2)c1=O" is less than 1?
*A* TRUE

*Q* Below 1 on fold change? Entry "C=C(C)[C@@H]1CCC(C)=C[C@H]1c1c(O)cc(C)cc1O"
*A* TRUE

*Q* Is it true that fold change reported for "CCCCCCCOC(=O)Cc1c(C)n(C(=O)c2ccc(Cl)cc2)c2ccc(OC)cc12" is less than 1?
*A* TRUE

*Q* Input "CC(C)c1cc(-c2n[nH]c(=O)n2-c2ccc3c(ccn3C)c2)c(O)cc1O" ; condition: fold change strictly below 1. Does it hold?
*A* FALSE

*Q* For "COc1cc(C=O)c([N+](=O)[O-])cc1OC" , is the recorded fold change below the cut-off of 1?
*A* TRUE

*Q* Is fold change of Cc1nc(NC(=O)N2CCCC2C(N)=O)sc1-c1ccnc(C(C)(C)C(F)(F)F)c1 (stereo not drawn) strictly below 1?
*A* TRUE

*Q* Please let me know if CCCCC/C=C\C/C=C\CCCCCCCC(=O)OCC(COC(=O)CCCCCCCCCCCCCCC)OC(=O)CCCCCCC/C=C\CCCCCCCC (stereo not drawn) shows fold change below 1.
*A* FALSE

----------
# assay_notes: viability loss in pontine glioma line – cell-based, SU-DIPG-XIII, MIPE5.0, CellTiter-Glo, qHTS, dose response (AID 1347064);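 for AC50: cells exposed to compound for 48 hours before the viability read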
# experimental_parameters: CellTiter-Glo ATP luminescence
Records with an inconclusive call do not appear. Calls of active or inactive are those of the source. No cut-off is given here; in the data, nearly all actives have AC50 up to about 23 µM.
Respond only with the outcome that fits, drawn from active, inactive

*Q* Can you look up the reported call for "COc1cc2c(Oc3ccc4[nH]c(C)cc4c3F)ncnc2cc1OCCCN1CCCC1" for me?
*A* active

*Q* Could you check what this test reported for "NC1=N[C@H]2[C@H](CS[C@H]2CCCCC(=O)O)N1" ?
*A* inactive

*Q* What classification did "COc1ncc(-c2ccc3nccc(-c4ccnnc4)c3c2)cc1NS(=O)(=O)c1ccc(F)cc1F" end up with in this test?
*A* active

*Q* Query: recorded result category for "COc1ncc(Nc2ncc([C@H](C)N3CCN(S(C)(=O)=O)CC3)cc2-c2nc(C)nc(N)n2)cc1F" in this test
*A* active

*Q* Identify the outcome logged in this assay for the compound shown: "NS(=O)(=O)c1cccc2c1C(=O)c1cccc(O)c1C2=O"
*A* active

*Q* Could you please tell me the result logged for "COc1ccc(Cc2nccc3cc(OC)c(OC)cc23)cc1OC" in this assay?
*A* inactive

*Q* // return assay outcome for "CCN1CCN(Cc2ccc(NC(=O)c3ccc(C)c(NC(=O)c4cncc(-c5cccs5)c4)c3)cc2C(F)(F)F)CC1"
*A* active

*Q* So what was the verdict on "N#C/C(=C1/Nc2ccccc2S1)c1ccnc(OCc2ccc(CN3CCOCC3)cc2)n1" in this test?
*A* active

*Q* Test call for this compound, please: "CNC(=O)c1ccccc1Nc1nc(Nc2ccc3c(c2OC)CCC[C@@H](N2CCN(CCO)CC2)C3)ncc1Cl"
*A* active
